ASSAY_SUMMARY: Photostability of compound assessed as drug degradation at 1 mM irradiated with 2 J/cm2 light by HPLC/MS analysis
Type: physicochemical
STUDY_CONDITIONS: read-out: Drug degradation
MEASURED_ATTRIBUTE: degraded at 1000 µM (%)
Give the number; % is assumed, so skip it.

Q: Using the record for CCCN(C(=O)OC(C)c1cc(OC)c(OCCCC(=O)O)cc1[N+](=O)[O-])[C@H]1CC[C@H](N(Cc2cccc(-c3ccncc3)c2)C(=O)c2sc3ccccc3c2Cl)CC1 (stereo partly specified) , report its degraded at 1000 µM.
Result: 90

---

ASSAY_SUMMARY: Photostability of compound assessed as drug degradation at 1 mM irradiated with 8 J/cm2 light by HPLC/MS analysis
Assay type: physicochemical
STUDY_CONDITIONS: read-out: Drug degradation
MEASURED_ATTRIBUTE: degraded at 1000 µM (%)
Number in %, nothing else.

Q: Fill in: degraded at 1000 µM of CCCN(C(=O)OC(C)c1cc(OC)c(OCCCC(=O)O)cc1[N+](=O)[O-])[C@H]1CC[C@H](N(Cc2cccc(-c3ccncc3)c2)C(=O)c2sc3ccccc3c2Cl)CC1 (stereo partly specified) is ___
Result: 100

Provenance of the data: ChEMBL document CHEMBL4814058
